- Tested on: SR leukemia
- ASSAY: NCI tumour cell line growth inhibition, 48 h
TEST_READOUT: TGI

{"COMPOUND": "N#Cc1ccc(-n2c3ccccc3c3ccc4c(c32)C(=O)C=CC4=O)cc1", "TGI": "6.92 µM"}
{"COMPOUND": "Cc1ccccc1S(=O)(=O)Nn1cnc2ccc(S(=O)(=O)Nc3ccc(Cl)cc3)cc2c1=O", "TGI": "> 100 µM"}

API: the following record is the query input.
## Input Query (compound): O=C(NCCCCCCNC(=O)c1cc(-c2ccccc2)nc2ccccc12)c1cc(-c2ccccc2)nc2ccccc12 ; field requested: TGI
## Output > 100 µM

====

- System: M14 melanoma
- ASSAY: NCI tumour cell line growth inhibition, 48 h
The following compounds are listed with their measured TGI values.

Sample records with TGI:
{"COMPOUND": "CC(=O)Nc1c(C)cc2c(nc3n2CCC3O)c1[N+](=O)[O-] (stereo not drawn)", "TEST_READOUT": "TGI", "MEASUREMENT": "> 100 µM"}
{"COMPOUND": "O=Cc1c(O)c(C(=O)Nc2ccc3[nH]c(=O)[nH]c3c2)cc2ccccc12", "TEST_READOUT": "TGI", "MEASUREMENT": "> 100 µM"}

API: the following record is the query input.
## Input Query (compound): CC(=O)C1=C(O)CC2CC3c4[nH]c5ccccc5c4CCN3CC2C1 (stereo not drawn) ; field requested: TGI
## Output > 100 µM

====

- System: OVCAR-3 ovarian
- ASSAY: NCI tumour cell line growth inhibition, 48 h
TEST_READOUT: TGI

Sample records with TGI:
{"SMILES_RECORD": "CCOC(=O)c1c(N2CCOCC2)[nH]c(=O)c(C(c2ccco2)c2c(O)c(C(=O)OCC)c(N3CCOCC3)[nH]c2=O)c1O", "TARGET_ENTITY": "OVCAR-3 ovarian", "MEASUREMENT": "> 100 µM"}
{"SMILES_RECORD": "Nn1c(Cc2ccc([N+](=O)[O-])cc2)n[nH]c1=O", "TARGET_ENTITY": "OVCAR-3 ovarian", "MEASUREMENT": "> 100 µM"}
{"SMILES_RECORD": "COC(=O)/C=C/c1cc2c(cc1-c1c(C(=O)O)cc(OC)c(OC)c1OC)OCO2", "TARGET_ENTITY": "OVCAR-3 ovarian", "MEASUREMENT": "> 10 µM"}
{"SMILES_RECORD": "CCOC(=O)NC(Nc1ccc(C(=O)OCC)cc1)(C(F)(F)F)C(F)(F)F", "TARGET_ENTITY": "OVCAR-3 ovarian", "MEASUREMENT": "> 100 µM"}

API: the following record is the query input.
## Input Query (molecule): CN(C)CCCNC(=O)c1cc(NC(=O)c2cc(NC(=O)CCNS(=O)(=O)c3ccc4c(c3)C(=O)c3ccccc3C4=O)cn2C)cn1C ; field requested: TGI
## Output > 100 µM

====

The following compounds are listed with their measured TGI values.
- System: LOX IMVI melanoma
- ASSAY: NCI tumour cell line growth inhibition, 48 h

{"COMPOUND": "CC1OC(n2cc(F)c(=O)[nH]c2=O)C=CC1=O (stereo not drawn)", "TGI": "28.7 µM"}
{"COMPOUND": "CC(=O)OCC1OC(n2c(-c3ccc(C)cc3)cc(-c3ccccc3)c(C#N)c2=O)C(OC(C)=O)C(OC(C)=O)C1OC(C)=O (stereo not drawn)", "TGI": "> 100 µM"}
{"COMPOUND": "CCNC(=O)O[C@H]1CN[C@H](C#Cc2cc3ncnc(Nc4ccc(OCc5cccc(F)c5)c(Cl)c4)c3s2)C1", "TGI": "> 25 µM"}
{"COMPOUND": "COC(=O)c1c2cccccc-2c(Cc2c3cccccc-3c(C(=O)OC)c2O)c1O", "TGI": "> 100 µM"}
{"COMPOUND": "CN1C(=O)C2C(C1=O)C1(O)c3ccccc3C2(N)c2ccccc21 (stereo not drawn)", "TGI": "> 100 µM"}

## Input Query (compound): CN(Cc1cc(C(C)(C)C)cc(Br)c1O)Cc1cc(C(C)(C)C)cc(Br)c1O ; field requested: TGI
## Output 14.8 µM

## Input Query (compound): COc1cc(C(O)(CC#N)c2cc3c(cc2Br)OCO3)cc(OC)c1OC (stereo not drawn) ; field requested: TGI
## Output > 100 µM

## Input Query (compound): COc1ccc(SCc2cc(OCc3ccccc3)c(OCc3ccccc3)c(OCc3ccccc3)c2)cc1 ; field requested: TGI
## Output 2.91 µM
